Tested on: Yellow Fever Mosquito (Aedes aegypti, AEDSAE) ("YFM")
Assay: Bioassay on Yellow Fever Mosquito (YFM), 96-well plate larval assay
Format: in vivo
Conditions: about 1 day-old larvae, from 4000 ppm master plate, scored on mortality after 3 days
parameter_measured: YFM % Control (or Mortality) rating

INSERT INTO assay_data (compound, value) VALUES
  ('O=C(Nc1ccc(-c2ncn(-c3ccc(OC(F)(F)F)cc3)n2)cc1)c1ccccc1Nc1ccccc1 [F7]', 'A (80-100)'),
  ('Cc1cccc(C)c1-c1ccccc1C(=O)NCc1ccc(-c2ncn(-c3ccc(OC(F)(F)F)cc3)n2)cc1 [F37]', 'A (80-100)'),
  ('COc1cccc(C(=O)Nc2ccc(-c3ncn(-c4ccc(OC(F)(F)C(F)(F)F)cc4)n3)cc2)c1 [F14]', 'A (80-100)');

---

System: Cabbage Looper (Trichoplusia ni, TRIPNI) ("CL")
Assay: Bioassay on Cabbage Looper (CL), 128-well diet tray assay
Assay type: in vivo
Details: 168 h, read-out: CL % Control (or Mortality) rating
parameter_measured: mortality at 50 µg/cm2

Solved cases (4 shown):
INSERT INTO results (compound, value) VALUES
  ('Cc1ccc(C(=O)NCc2ccc(-c3ncn(-c4ccc(OC(F)(F)F)cc4)n3)cc2)c(C)c1 [F29]', '0%'),
  ('CC(C)c1cccc(C(=O)Nc2ccc(-c3ncn(-c4ccc(OC(F)(F)C(F)(F)F)cc4)n3)cc2)c1 [F16]', '50 to 100%'),
  ('Cc1cccc(C)c1Nc1ccccc1C(=O)Nc1ccc(-c2ncn(-c3ccc(C(F)(F)F)cc3)n2)cc1 [F2]', '0%'),
  ('O=C(Nc1ccc(-c2ncn(-c3ccc(OC(F)(F)F)cc3)n2)cc1)c1cccc2c1OC(F)(F)O2 [F21]', '50 to 100%');

Proceed to the following item.
Measured mortality at 50 µg/cm2, CC(C)c1cccc(C(=O)NCc2ccc(-c3ncn(-c4ccc(OC(F)(F)F)cc4)n3)cc2)c1 [F28] : 0%

---

Tested on: Yellow Fever Mosquito (Aedes aegypti, AEDSAE) ("YFM")
Experiment: Bioassay on Yellow Fever Mosquito (YFM), 96-well plate larval assay
Format: in vivo
Conditions: about 1 day-old larvae, from 4000 ppm master plate, scored on mortality after 3 days
parameter_measured: YFM % Control (or Mortality) rating

INSERT INTO assay_data (line_notation, value) VALUES
  ('Cc1cccc(-c2ccccc2C(=O)NCc2ccc(-c3ncn(-c4ccc(OC(F)(F)F)cc4)n3)cc2)c1C', 'A (80-100)'),
  ('Cc1ccc(-c2ccccc2C(=O)NCc2ccc(-c3ncn(-c4ccc(OC(F)(F)F)cc4)n3)cc2)c(C)c1', 'A (80-100)');

---

System: Cabbage Looper (Trichoplusia ni, TRIPNI) ("CL")
Test: Bioassay on Cabbage Looper (CL), 128-well diet tray assay
Format: in vivo
Details: 168 h, read-out: CL % Control (or Mortality) rating
parameter_measured: mortality at 50 µg/cm2

Solved cases (7 shown):
INSERT INTO assay_data (line_notation, parameter_measured, value) VALUES
  ('Cc1cc(F)ccc1-c1ccccc1C(=O)NCc1ccc(-c2ncn(-c3ccc(OC(F)(F)F)cc3)n2)cc1', 'mortality at 50 µg/cm2', '50 to 100%'),
  ('Cc1cccc(-c2ccccc2C(=O)NCc2ccc(-c3ncn(-c4ccc(OC(F)(F)F)cc4)n3)cc2)c1C', 'mortality at 50 µg/cm2', '50 to 100%'),
  ('Cc1cccc(C)c1-c1ccccc1C(=O)NCc1ccc(-c2ncn(-c3ccc(OC(F)(F)F)cc3)n2)cc1', 'mortality at 50 µg/cm2', '50 to 100%'),
  ('COc1ccc(-c2ccccc2C(=O)NCc2ccc(-c3ncn(-c4ccc(OC(F)(F)F)cc4)n3)cc2)c(C)c1', 'mortality at 50 µg/cm2', '0%'),
  ('CC(C)c1cccc(C(=O)Nc2ccc(-c3ncn(-c4ccc(C(F)(F)F)cc4)n3)cc2)c1', 'mortality at 50 µg/cm2', '50 to 100%'),
  ('CC(C)c1ccccc1C(=O)NCc1ccc(-c2ncn(-c3ccc(OC(F)(F)F)cc3)n2)cc1', 'mortality at 50 µg/cm2', '0%'),
  ('COc1ccccc1C(=O)Nc1ccc(-c2ncn(-c3ccc(OC(F)(F)C(F)(F)F)cc3)n2)cc1', 'mortality at 50 µg/cm2', '50 to 100%');

Proceed to the following item.
Measured mortality at 50 µg/cm2, CC(C)c1cccc(C(=O)NCCc2ccc(-c3ncn(-c4ccc(OC(F)(F)F)cc4)n3)cc2)c1 : 50 to 100%
